Answer each item with its documented logD.
# measurement.protocol: method code SF, from PMID: 17665861
# condition: pH 7.4
Reply: number alone, nothing else.

# input Could you please provide reported logD for O=C1Nc2ccccc2C12SC1C(=NNC1c1ccccc1)N2c1ccc(Br)cc1 (centres undefined) ? Thanks!
# output 1.24

# input Supply measured logD of COc1ccc(C2NN=C3C2SC2(C(=O)Nc4ccccc42)N3c2ccccc2OC)cc1 (centres undefined) in your reply.
# output 1.23

# input Determine from records and report logD for O=C1Nc2ccccc2C12SC1C(=NNC1c1ccccc1[N+](=O)[O-])N2c1cccc2ccccc12 (centres undefined)
# output 1.17

# input Give the reported value of logD for this record: O=C1Nc2ccccc2C12SC1C(=NNC1c1ccc([N+](=O)[O-])cc1)N2c1ccc(Cl)cc1 (centres undefined)
# output 1.31

# input In one line, give reported logD of the entry COc1ccccc1N1C2=NNC(c3ccccc3[N+](=O)[O-])C2SC12C(=O)Nc1ccccc12 (centres undefined) .
# output 1.11

# input State its logD: O=C1Nc2ccccc2C12SC1C(=NNC1c1ccccc1O)N2c1ccccc1 (centres undefined)
# output 1.25

# input Provide one value: measured logD of O=C1Nc2ccccc2C12SC1C(=NNC1c1ccc([N+](=O)[O-])cc1)N2c1ccc(Br)cc1 (centres undefined)
# output 1.35

# input Query logD for O=C1Nc2ccccc2C12SC1C(=NNC1c1ccccc1Cl)N2c1ccc(Br)cc1 (centres undefined)
# output 1.45

# input Supply recorded logD for O=C1Nc2ccccc2C12SC1C(=NNC1c1ccc([N+](=O)[O-])cc1)N2c1ccccc1[N+](=O)[O-] (centres undefined) here.
# output 1.45

# input Read off the recorded logD for COc1ccccc1N1C2=NNC(c3ccccc3O)C2SC12C(=O)Nc1ccccc12 (centres undefined)
# output 1.14

# input Quick one: give measured logD for O=C1Nc2ccccc2C12SC1C(=NNC1c1ccccc1)N2c1ccccc1[N+](=O)[O-] (centres undefined)
# output 1.14

# input Tell me logD reported for COc1ccccc1N1C2=NNC(c3ccccc3)C2SC12C(=O)Nc1ccccc12 (centres undefined)
# output 1.19

# input Return value of logD for input COc1ccc(C2NN=C3C2SC2(C(=O)Nc4ccccc42)N3c2ccc(Cl)cc2)cc1 (centres undefined) , no commentary.
# output 1.41

# input // fetch logD given entry O=C1Nc2ccccc2C12SC1C(=NNC1c1ccccc1)N2c1ccc(Cl)cc1 (centres undefined)
# output 1.1

# input Please give measured logD of the following entry: COc1ccc(C2NN=C3C2SC2(C(=O)Nc4ccccc42)N3c2ccc(Br)cc2)cc1 (centres undefined)
# output 1.4

# input Specify logD for O=C1Nc2ccccc2C12SC1C(=NNC1c1ccccc1Cl)N2c1ccccc1[N+](=O)[O-] (centres undefined) and stop.
# output 1.17

# input Provide only the value of recorded logD for COc1ccc(C2NN=C3C2SC2(C(=O)Nc4ccccc42)N3c2ccccc2[N+](=O)[O-])cc1 (centres undefined)
# output 1.35

# input Read off the recorded logD for COc1ccc(C2NN=C3C2SC2(C(=O)Nc4ccccc42)N3c2cccc3ccccc23)cc1 (centres undefined)
# output 1.2

# input Let me know recorded logD for COc1ccccc1N1C2=NNC(c3ccc(Cl)cc3)C2SC12C(=O)Nc1ccccc12 (centres undefined) , thanks.
# output 1.26

Source listed as the SangsterLogP compilation.
